# Test system: ovariectomized rats
# Protocol: ovariectomized rat model of postmenopausal hyperlipidemia (uterine weight, uterine eosinophil peroxidase, serum cholesterol)
# Assay type: in vivo
# Condition Details: rat, in vivo, 1 mg/kg
Measurement Name: Uterine Eosinophil (Vmax)

[[record]]
molecule = "O=C(c1ccc(OCCCCCCCN2CCCC2)cc1)c1c(-c2ccc(O)cc2)sc2cc(O)ccc12 [Example 11]"
measurement_name = "Uterine Eosinophil (Vmax)"
result_number = 5.9

[[record]]
molecule = "O=C(c1ccc(OCCCCCN2CCCC2)cc1)c1c(-c2ccc(O)cc2)sc2cc(O)ccc12 [Example 13]"
measurement_name = "Uterine Eosinophil (Vmax)"
result_number = 5.8


1. O=C(c1ccc(OCCCCCCCCN2CCCC2)cc1)c1c(-c2ccc(O)cc2)sc2cc(O)ccc12 [Preparation C]
2. O=C(c1ccc(OCCCCCCN2CCCC2)cc1)c1c(-c2ccc(O)cc2)sc2cc(O)ccc12 [Example 12]
Choose between 1 and 2 : whose measured Uterine Eosinophil (Vmax) value is numerically larger? Bench note: the answer is the label of the chosen record.
1
(1: 4.2, 2: 2.6)
